- assay.comment: soluble on expression in E. coli; label from the status in PepcDB or PDB records
parameter: soluble on expression in E. coli

MLIKVKTLTGKEIELDIEPNDRVERIKEKVEEKEGIPPPQQRLIFAGKQMNDDKTAADYKVLGGSVLHLVLALRGGF	not soluble
IKDFNYRIGFNLYDSQSEITKFNNETNLLGTYRKGQKIGEIWGYVTDRFYREDDFNADGTLKEGIPIPKGVGKVYPGDILYKNFDDDASTIWSGKGTADDPGDQRIIGNSTPRFHYGINAGLSWKGFDLSVFLRGVGKRDFWRTDQIAWPTGTWGSLFKETLDFWTPEHTDAYFPRVYANNGVNTASNRWKQTKYLANAAYLKLQNITLSYTLPKTWAKQICFDEVKVFFSGENLHTWDHLPEGLESDMLSKGAWEYPFMKKFSLGFNVTF	not soluble
